- TESTED_SYSTEM: Fibroblast growth factor 2 (Homo sapiens) (UniProt P09038)
- Sequence (P09038 whole entry, looked up): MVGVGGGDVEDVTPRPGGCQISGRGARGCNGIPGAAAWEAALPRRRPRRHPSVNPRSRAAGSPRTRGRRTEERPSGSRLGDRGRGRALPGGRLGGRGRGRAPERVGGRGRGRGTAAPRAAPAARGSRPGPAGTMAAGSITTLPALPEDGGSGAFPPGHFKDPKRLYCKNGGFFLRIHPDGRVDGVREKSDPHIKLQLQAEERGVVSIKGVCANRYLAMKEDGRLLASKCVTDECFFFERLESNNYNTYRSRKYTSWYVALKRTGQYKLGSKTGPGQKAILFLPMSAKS
- PROCEDURE_SUMMARY: FGF2 binders on small-molecule microarrays, primary screen, biochemical, small-molecule microarray, 635/667 nm fluorescence (AID 1133)
- DETAILS: small-molecule microarray binding, FGF2, fluorescence 635/667; higher = more signal
So I've got a bunch of compounds here, and I need their composite z-score values.
Keep the answer to the number alone.

Which composite z-score value is on record for C=CCOC(=O)[C@H]1[C@@H]2C(=O)O[C@@H](c3ccccc3)[C@@H](c3ccccc3)N2[C@@H](c2ccc(OCCOC(=O)[C@H]3C[C@H]4C(=O)N5CCC[C@H]5C(=O)N4[C@H]3c3cccc(OCCO)c3)cc2)[C@]12C(=O)Nc1ccc(I)cc12 ? 1.68

Record: COC(=O)[C@H](C)NC(=O)CCC1CC(OC(=O)NCc2ccc3c(c2)OCO3)CC2(CCCC(COC(=O)NCCOc3ccccc3)O2)O1 (some centres undefined) 1.09

Try C=CC[C@@H]1C=C[C@H](ON=C(C)CCN2CCc3nc(CC)c(CC)cc3C2)[C@@H](CO)O1 next. 0.466

What about COc1cccc([C@@H]2Oc3ccc(Br)cc3C(=O)[C@H]2O)c1 ? 0.267

Now consider C=CCN1C(=O)[C@]2(O[C@H](CCn3cc(CCO)nn3)[C@@H]([Si](C)(C)c3ccc(OC)cc3)[C@@H]2C)c2cc(N3CCOC3=O)ccc21 . -0.0054

Same lookup for COC(=O)[C@H]1COC(c2ccc(OCCCO)cc2)=N1 , please. 1.14

And what about the compound O=C1[C@H]2[C@H]3[C@H](O)[C@H](O)CC(=NOC[C@@H](O)COCc4ccco4)[C@H]3CC[C@H]2C(=O)N1c1cccc(Oc2ccccc2)c1 ? -0.701

Next compound up: COc1ccc(O[C@H]2C=C[C@@H](c3ccccc3)O[C@@H]2COC(=O)CCC(C)=NOC(C)CN2CCCCc3nc(C)c(C)cc32)cc1 (some centres undefined) -0.442

Continue with COc1ccc(O[C@@H]2[C@H](O)CO[C@H]2C=CC#Cc2ccccc2)cc1 0.341

And for CCOC(=O)CCN1C(=O)[C@H]2[C@H]3[C@H](O)[C@H](O)CC(=NOC[C@@H](O)COCc4ccco4)[C@@H]3CC[C@H]2C1=O ? 0.225

Item: COCCOC(=O)N1C(=O)[C@@]2(c3cc(C#CC4(O)CCCCCC4)ccc31)[C@H](C(=O)N1CCN(c3ncccn3)CC1)[C@H]1C(=O)O[C@H](c3ccccc3)[C@H](c3ccccc3)N1[C@@H]2c1ccc(OCCO)cc1 1.35

// repeat for CCCNC(=O)[C@@H]1c2ccccc2C(=O)N(Cc2ccccc2Cl)[C@H]1c1ccc(CO)cc1 and report 1.3

Now consider C=CCC(OC(C)=O)[C@@H]1[C@@H](N(Cc2cc3ccccc3o2)C(=O)Cc2ccc(F)cc2)c2cc(OCCCO)ccc2N1C(=O)Cc1ccc(OC)cc1 (some centres undefined) . -0.271

Same read-out for CC(C)(C)OC(=O)CC[C@]1(C(=O)NCc2ccccc2)N=C(c2ccc(OCCCO)cc2)O[C@H]1c1ccccc1 ? 0.487

What would you report for CC(C)=CCCC(C)=CCON=C1[C@H]2CCn3c(=O)n(C)c(=O)n3[C@H]2[C@H](O)[C@@H]2O[C@H]12 ? 0.896

Now consider COC(=O)[C@@H]1CC[C@H](C)[C@@H](c2ccc(C)cc2)N1C(=O)c1ccc(C=NOC[C@@H](O)COCc2ccco2)cc1 . -1.18

Also need C[N+](C)(C)CCCCCCNC(=O)[C@@H]1C[C@@H]2C(=O)N3CCC[C@H]3C(=O)N2[C@@H]1c1cccc(OCCO)c1 , thanks. 0.941

Same for CCOc1ccc(N2C(=O)/C(=C/C=C/c3ccccc3OC)S(=O)(=O)C2c2cccc([N+](=O)[O-])c2)cc1 (centres undefined) 0.235

Check CCc1cc2c(nc1CC)CCN(CCC(C)=NOC(C)CN1CCCc3nc(C)c(C)cc31)C2 (centres undefined) too. 0.631

Lookup O=C1C[C@@H](O)[C@@H](O)[C@@H]2[C@@H]3C(=O)N(c4cccc(Oc5ccccc5)c4)C(=O)[C@@H]3CC[C@@H]12 0.679

Also CCCCCN1CC=CC23O[C@@H]4C=CCOC(=O)[C@@H]4[C@H]2C(=O)N(CCCCCCO)[C@@H]3C1=O (some centres undefined) , if possible. -1.49

How about this compound: O=C1[C@H]2[C@H]3[C@H](O)[C@H](O)CC(=NOC[C@@H](O)COCc4ccco4)[C@H]3CC[C@H]2C(=O)N1Cc1ccc2c(c1)OCO2 1.57

And NCCCCCNC(=O)[C@@H]1C[C@@H]2C(=O)N3CCC[C@H]3C(=O)N2[C@@H]1c1cccc(OCCO)c1 ? 0.878

Ok, now O=C1NC(=O)C2C1C=CC(C(O)Cc1ccccc1)N2Nc1ccccn1 (centres undefined) 0.512

Likewise for CC(=O)OC[C@H]1O[C@H](CCON=C[C@@H](C)[C@H](OCc2ccccc2)C(C)C)C=C[C@@H]1OC(C)=O ? 0.274

Now try COC(=O)CC=C[C@@H](C)[C@@H](C=NO[C@@H](C)c1cc(-c2c(C)cc(C)cc2C)no1)OC . -1.35

Thanks! And CC(C)(C)N1C(=O)[C@H]2[C@H]3[C@H](O)[C@H](O)CC(=NOCc4ccccc4)[C@@H]3CC[C@H]2C1=O ? 0.742

What about [N-]=[N+]=Nc1ccccc1C[C@@]1(C(N)=O)N=C(c2ccc(OCCCO)cc2)O[C@@H]1c1ccccc1 ? -0.403

Now consider CC(C)c1ccc(NN2C(C(O)c3ccc4c(c3)OCO4)C=CC3C(=O)N(c4ccccc4)C(=O)C32)cc1 (centres undefined) and answer again. -0.146
